Reported values of koff for individual entries
# Measured Target: T1, Human CD47-C33G (human, UniProt Q08722 19-135)
# T1 construct: also called CD47 mutein with C33G mutation
# T1 sequence (Q08722 19-135 C33G limits assumed): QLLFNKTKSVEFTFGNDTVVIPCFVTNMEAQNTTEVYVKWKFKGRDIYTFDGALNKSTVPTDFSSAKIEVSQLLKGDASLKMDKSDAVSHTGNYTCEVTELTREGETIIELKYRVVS
# Test Name: SPR, IgG captured, CD47 in flow; exp 4;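 further: biacore T200 SPR using IgG from transfected HEK293 supernatants against wild-type human CD47 or its C33G mutein, rates fitted to association and dissociation curves, KD estimated from them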

- Binder: "108VH4.M4-VL1.M1 (antibody, V domains shown, also called original humanized 108C10A6 antibody) VH: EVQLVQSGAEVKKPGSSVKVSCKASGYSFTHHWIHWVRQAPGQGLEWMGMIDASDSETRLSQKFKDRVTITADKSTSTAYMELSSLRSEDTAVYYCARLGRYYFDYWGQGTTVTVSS VL: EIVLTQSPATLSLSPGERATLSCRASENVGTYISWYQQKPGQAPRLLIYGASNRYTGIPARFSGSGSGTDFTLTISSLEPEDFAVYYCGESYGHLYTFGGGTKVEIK"
  koff [s⁻¹]: 0.00086
- Binder: "108VH5.M25 / 108VL1.M5 (antibody, human IgG4 S228P, kappa, V domains shown, Full-length IgG4 (S228P), kappa; also called VH5.M25 VL1.M5) VH: EVQLVQSGAEVKKPGASVKVSCKASGYTFTHHWMHWVRQAPGQGLEWMGMIDASDRETRYAQKFQGRVTMTRDTSTSTVYMELSSLRSEDTAVYYCARLGRYYFDYWGQGTLVTVSS VL: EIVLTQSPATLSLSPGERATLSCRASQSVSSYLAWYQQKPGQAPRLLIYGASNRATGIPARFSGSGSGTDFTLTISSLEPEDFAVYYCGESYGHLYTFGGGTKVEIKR"
  koff [s⁻¹]: 0.0063
- Binder: "108VH5.M21 / 108VL1.M5 (antibody, human IgG4 S228P, kappa, V domains shown, Full-length IgG4 (S228P), kappa; also called VH5.M21 VL1.M5) VH: EVQLVQSGAEVKKPGASVKVSCKASGYTFTHHWMHWVRQAPGQGLEWMGMIDASDFETRYAQKFQGRVTMTRDTSTSTVYMELSSLRSEDTAVYYCARLGRYYFDYWGQGTLVTVSS VL: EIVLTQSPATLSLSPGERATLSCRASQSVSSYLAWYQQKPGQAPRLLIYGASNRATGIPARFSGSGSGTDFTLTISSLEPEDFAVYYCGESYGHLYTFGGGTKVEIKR"
  koff [s⁻¹]: 0.008
- Binder: "108VH5.M20 / 108VL1.M5 (antibody, human IgG4 S228P, kappa, V domains shown, Full-length IgG4 (S228P), kappa; also called VH5.M20 VL1.M5) VH: EVQLVQSGAEVKKPGASVKVSCKASGYTFTHHWMHWVRQAPGQGLEWMGMIDASDAETRYAQKFQGRVTMTRDTSTSTVYMELSSLRSEDTAVYYCARLGRYYFDYWGQGTLVTVSS VL: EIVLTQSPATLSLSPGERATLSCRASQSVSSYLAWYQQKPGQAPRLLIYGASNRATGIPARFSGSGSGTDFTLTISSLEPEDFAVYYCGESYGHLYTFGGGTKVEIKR"
  koff [s⁻¹]: 0.0045
